SYSTEM UNDER TEST: T1, recombinant human ErbB3 protein (R&D systems) (human, UniProt P21860 20-643)
T1 construct: Bought recombinant protein; also called HER3
ASSAY COMMENT: BLI (Octet QK384), human ErbB3 immobilized on AR2G sensor, IgG at 12.5-50 nM
Recorded Kd, one value per entry.
MEASURED PROPERTY: Kd

[
  {
    "BINDER": "442S6 (antibody, V domains shown, IgG1 (Selexis 085 vector, CHO)) VH: EVQLLESGGGLVQPGGSLRLSCAASGFTFSDYDMSWVRQAPGKGLEWVSSIYPDSGSTDYADSVQGRFTISRDNSKNTLYLQMNSLRAEDTAVYYCAKDRHMWPEGPFDYWGQGTLVTVSS VL: QSVLTQPPSASGTPGQRVTISCSGSSSNIGSNSGSWYQQLPGTAPKLLIYADNWRPSGVPDRFSGSKSGTSASLAISGLRSEDEADYYCAAWDSSLSGYVFGGGTKLTVLG",
    "MEASUREMENT": "< 1 pM"
  },
  {
    "BINDER": "472S2 (antibody, V domains shown, IgG1 (Selexis 085 vector, CHO)) VH: EVQLLESGGGLVQPGGSLRLSCAASGFTFSWYDLAWVRQAPGKGLEWVSGISYDGGNTYYADSVKGRFTISRDNSKNTLYLQMNSLRAEDTAVYYCARDPSWCLQDLCYYADGMDVWGQGTLVTVSS VL: QSVLTQPPSASGTPGQRVTISCSGSSSNIGSNSVSWYQQLPGTAPKLLIYADSNRPSGVPDRFSGSKSGTSASLAISGLRSEDEADYYCGSWDYSLSGYVFGGGTKLTVLG",
    "MEASUREMENT": "< 1 pM"
  },
  {
    "BINDER": "472S3 (antibody, V domains shown, IgG1 (Selexis 085 vector, CHO)) VH: EVQLLESGGGLVQPGGSLRLSCAASGFTFSWYDMSWVRQAPGKGLEWVSGISYDGGNTYYADSVKGRFTISRDNSKNTLYLQMNSLRAEDTAVYYCARDPSWCLQDLCYYADGMDVWGQGTLVTVSS VL: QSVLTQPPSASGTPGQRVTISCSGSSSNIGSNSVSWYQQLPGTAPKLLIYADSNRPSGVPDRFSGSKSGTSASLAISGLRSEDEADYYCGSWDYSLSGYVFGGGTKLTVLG",
    "MEASUREMENT": "< 1 pM"
  }
]
